Values from ChEMBL document CHEMBL1649117

tested on: Human immunodeficiency virus 1; assay: Antiviral activity against HIV1 NL4-3 harboring I47V mutation in protease encoding region infected in human […] cells assessed as inhibition of p24 Gag protein production by ELISA; type: functional, organism-based; settings: Human immunodeficiency virus 1, NL4-3
Measurement Type: EC50 (nM)
Give the value, in units of nM, as a plain number.

stdin: Quick one: EC50 for `COc1ccc(S(=O)(=O)N(C[C@@H]2CCC(=O)N2)C[C@@H](O)[C@H](Cc2ccccc2)NC(=O)O[C@@H]2C[C@@H]3CCO[C@@H]3C2)cc1` ?
stdout: 37

---

system: Human immunodeficiency virus 1; experiment: Ratio of EC50 for HIV1 NL4-3 harboring L10F/M46I/I54V/V82A amino acid substitution in protease encoding region to EC50 for HIV1 NL4-3; assay type: functional
Measurement Type: Ratio EC50

Example entries and their recorded answers appear below.
Molecular String	Ratio EC50
CC(C)(C)NC(=O)[C@@H]1C[C@@H]2CCCC[C@@H]2CN1C[C@@H](O)[C@H](Cc1ccccc1)NC(=O)[C@H](CC(N)=O)NC(=O)c1ccc2ccccc2n1	4
CC(C)CN(C[C@@H](O)[C@H](Cc1ccccc1)NC(=O)O[C@H]1CCOC1)S(=O)(=O)c1ccc(N)cc1	11

stdin: Record lookup: for Human immunodeficiency virus 1, what Ratio EC50 belongs to `Cc1c(O)cccc1C(=O)N[C@@H](CSc1ccccc1)[C@H](O)CN1C[C@H]2CCCC[C@H]2C[C@H]1C(=O)NC(C)(C)C` ?
stdout: 28

---

test system: Human immunodeficiency virus 1; assay: Ratio of EC50 for HIV1 NL4-3 harboring L23I/K43I/M46I/I50L/G51A/A71V amino acid substitution in protease encoding region to EC50 for HIV1 NL4-3; format: functional
# Ratio EC50 per record follows

These recorded examples may help you get a feel for the data.
Molecular String	Experimental Result
CC(C)(C)NC(=O)[C@@H]1C[C@@H]2CCCC[C@@H]2CN1C[C@@H](O)[C@H](Cc1ccccc1)NC(=O)[C@H](CC(N)=O)NC(=O)c1ccc2ccccc2n1	4
Cc1c(O)cccc1C(=O)N[C@@H](CSc1ccccc1)[C@H](O)CN1C[C@H]2CCCC[C@H]2C[C@H]1C(=O)NC(C)(C)C	12

Please find the next compound below.
stdin: Need Ratio EC50 of `CC(C)(C)NC(=O)[C@@H]1CN(Cc2cccnc2)CCN1C[C@@H](O)C[C@@H](Cc1ccccc1)C(=O)N[C@H]1c2ccccc2C[C@H]1O.O` , thanks.
stdout: 24

---

system: Human immunodeficiency virus 1; assay: Antiviral activity against HIV1 G harboring L10I/V11I/T12E/I15V/L19I/R41K/M46L/L63P/A71T/V82A/L90M in protease encoding region infected in human PHA-PBC assessed as inhibition of p24 Gag protein production by ELISA; assay type: functional, organism-based; conditions: Human immunodeficiency virus 1, G
log10 EC50 overview
A value of 2 here means EC50 of 100 in nM, since values are log10.

Study these solved cases before continuing.
Molecule	log10 EC50
Cc1cccc(C)c1OCC(=O)N[C@@H](Cc1ccccc1)[C@@H](O)C[C@H](Cc1ccccc1)NC(=O)[C@H](C(C)C)N1CCCNC1=O [LOPINAVIR]	2.11
CC(C)(C)NC(=O)[C@@H]1CN(Cc2cccnc2)CCN1C[C@@H](O)C[C@@H](Cc1ccccc1)C(=O)N[C@H]1c2ccccc2C[C@H]1O.O	2.53
Cc1cn([C@H]2C[C@H](N=[N+]=[N-])[C@@H](CO)O2)c(=O)[nH]c1=O [ZIDOVUDINE]	2.78
CC(C)CN(C[C@@H](O)[C@H](Cc1ccccc1)NC(=O)O[C@H]1CCOC1)S(=O)(=O)c1ccc(N)cc1	2.36
CC(C)(C)NC(=O)[C@@H]1C[C@@H]2CCCC[C@@H]2CN1C[C@@H](O)[C@H](Cc1ccccc1)NC(=O)[C@H](CC(N)=O)NC(=O)c1ccc2ccccc2n1	1.43
Cc1c(O)cccc1C(=O)N[C@@H](CSc1ccccc1)[C@H](O)CN1C[C@H]2CCCC[C@H]2C[C@H]1C(=O)NC(C)(C)C	2.36

Proceeding to the next molecule to report its log10 EC50.
stdin: Reported log10 EC50 for `COc1ccc(S(=O)(=O)N(C[C@@H]2CCC(=O)N2)C[C@@H](O)[C@H](Cc2ccccc2)NC(=O)O[C@@H]2C[C@@H]3CCO[C@@H]3C2)cc1` : what is it?
stdout: 1.45

---

As shown below, each of these compounds has a reported pEC50 value.
system: Human immunodeficiency virus 1; assay: Antiviral activity against HIV1 TM harboring L10I/K14R/R41K/M46L/I54V/L63P/A71V/V82A/L90M/I93L in protease encoding region infected in human PHA-PBC assessed as inhibition of p24 Gag protein production by ELISA; type: functional, organism-based; details: Human immunodeficiency virus 1, TM
Just the number, please; pEC50 means minus log10 of the concentration in mol/L.

Check out these entries, answers already filled in.
Molecular String	Target Entity	pEC50
COc1ccc(S(=O)(=O)N(C[C@@H]2CCC(=O)N2)C[C@@H](O)[C@H](Cc2ccccc2)NC(=O)O[C@@H]2C[C@@H]3CCO[C@@H]3C2)cc1	Human immunodeficiency virus 1	7.59
CC(C)CN(C[C@@H](O)[C@H](Cc1ccccc1)NC(=O)O[C@H]1CO[C@H]2OCC[C@H]21)S(=O)(=O)c1ccc(N)cc1	Human immunodeficiency virus 1	8.40

stdin: Recorded pEC50 of `Cc1cn([C@H]2C[C@H](N=[N+]=[N-])[C@@H](CO)O2)c(=O)[nH]c1=O` , please.
stdout: 6.05

stdin: Data request, read-out pEC50, for `Cc1cccc(C)c1OCC(=O)N[C@@H](Cc1ccccc1)[C@@H](O)C[C@H](Cc1ccccc1)NC(=O)[C@H](C(C)C)N1CCCNC1=O`
stdout: 6.64

---

tested on: Human immunodeficiency virus 1; test: Antiviral activity against HIV1 NL4-3 infected in human MT4 cells assessed as inhibition of p24 gag protein production by ELISA; assay type: functional, organism-based; conditions: Human immunodeficiency virus 1, NL4-3, MT4
Measurement Type: pEC50
# pEC50 = -log10(concentration in molar units)

Take a look at these entries with their results.
Molecule	Experimental Result
CC(C)(C)NC(=O)[C@@H]1C[C@@H]2CCCC[C@@H]2CN1C[C@@H](O)[C@H](Cc1ccccc1)NC(=O)[C@H](CC(N)=O)NC(=O)c1ccc2ccccc2n1	8.10
COC(=O)N[C@H](C(=O)N[C@@H](Cc1ccccc1)[C@@H](O)CN(Cc1ccc(-c2ccccn2)cc1)NC(=O)[C@@H](NC(=O)OC)C(C)(C)C)C(C)(C)C [ATAZANAVIR]	8.37
CC(C)CN(C[C@@H](O)[C@H](Cc1ccccc1)NC(=O)O[C@H]1CCOC1)S(=O)(=O)c1ccc(N)cc1	7.55
COc1ccc(S(=O)(=O)N(C[C@@H]2CCC(=O)N2)C[C@@H](O)[C@H](Cc2ccccc2)NC(=O)O[C@@H]2C[C@@H]3CCO[C@@H]3C2)cc1	7.64
CC(C)(C)NC(=O)[C@@H]1CN(Cc2cccnc2)CCN1C[C@@H](O)C[C@@H](Cc1ccccc1)C(=O)N[C@H]1c2ccccc2C[C@H]1O.O	7.85

Turning to the following molecule.
stdin: Which pEC50 value is on record for CC(C)c1nc(CN(C)C(=O)N[C@H](C(=O)N[C@@H](Cc2ccccc2)C[C@H](O)[C@H](Cc2ccccc2)NC(=O)OCc2cncs2)C(C)C)cs1 [RITONAVIR] ?
stdout: 7.68

---

Here, each record is paired with measured Ratio EC50 data.
tested on: Human immunodeficiency virus 1; assay: Ratio of EC50 for HIV1 NL4-3 harboring L10I/G48V/I54V/L90M amino acid substitution in protease encoding region to EC50 for HIV1 NL4-3; format: functional
Just the number, please, no unit after it.

# annotated cases, reported Ratio EC50 shown
Molecular String	Ratio EC50
Cc1c(O)cccc1C(=O)N[C@@H](CSc1ccccc1)[C@H](O)CN1C[C@H]2CCCC[C@H]2C[C@H]1C(=O)NC(C)(C)C	18
COC(=O)N[C@H](C(=O)N[C@@H](Cc1ccccc1)[C@@H](O)CN(Cc1ccc(-c2ccccn2)cc1)NC(=O)[C@@H](NC(=O)OC)C(C)(C)C)C(C)(C)C	74
CC(C)CN(C[C@@H](O)[C@H](Cc1ccccc1)NC(=O)O[C@H]1CCOC1)S(=O)(=O)c1ccc(N)cc1	8

# input for lookup
stdin: Give the measured Ratio EC50 of `COc1ccc(S(=O)(=O)N(C[C@@H]2CCC(=O)N2)C[C@@H](O)[C@H](Cc2ccccc2)NC(=O)O[C@@H]2C[C@@H]3CCO[C@@H]3C2)cc1` .
stdout: 6

---

tested on: Human immunodeficiency virus 1; assay: Antiviral activity against HIV1 C harboring L10I/I15V/K20R/L24I/M36I/M46L/I54V/I62V/L63P/K70Q/V82A/L89M in protease encoding region infected in human PHA-PBC assessed as inhibition of p24 Gag protein production by ELISA; assay type: functional, organism-based; settings: Human immunodeficiency virus 1, C
// reported pEC50 for each item listed
# pEC50 = -log10(concentration in molar units)

Answered examples (4):
Molecular String	pEC50
Cc1cn([C@H]2C[C@H](N=[N+]=[N-])[C@@H](CO)O2)c(=O)[nH]c1=O	6.55
Cc1c(O)cccc1C(=O)N[C@@H](CSc1ccccc1)[C@H](O)CN1C[C@H]2CCCC[C@H]2C[C@H]1C(=O)NC(C)(C)C	6.44
Cc1cccc(C)c1OCC(=O)N[C@@H](Cc1ccccc1)[C@@H](O)C[C@H](Cc1ccccc1)NC(=O)[C@H](C(C)C)N1CCCNC1=O	6.34
COc1ccc(S(=O)(=O)N(C[C@@H]2CCC(=O)N2)C[C@@H](O)[C@H](Cc2ccccc2)NC(=O)O[C@@H]2C[C@@H]3CCO[C@@H]3C2)cc1	7.57

Next compound, pEC50 to be filled in.
stdin: # pEC50 lookup, item `CC(C)CN(C[C@@H](O)[C@H](Cc1ccccc1)NC(=O)O[C@H]1CCOC1)S(=O)(=O)c1ccc(N)cc1`
stdout: 6.66
